Test system: SOX17 (endoderm marker) in RUES2-GLR cells
Test: DevTox GLR-Endo assay: decrease in percent SOX17-positive cells (AEID 3094, Sox17_dn)
Conditions: tcpl plot AEID3094, COFF 20.3
Structures can show the parent of a compound that is named as a salt. Starred links: 1 amine or outer side, 2 acyl side, 3 side chain; linkers in the order of their positions; H or OH if unused. Positions of bridges follow the written chain, without caps; N, C: chain ends. Non-standard residues stand in square brackets, D forms with d. Residues, ends and D or L forms follow the SMILES beside them. Chains are numbered I, II in the order given. Actinocin(9to1) = Cc1c2oc3c(C)ccc(C(=O)[*:1])c3nc-2c(C(=O)[*:2])c(N)c1=O; NMeV = CN[C@H](C(=O)O)C(C)C; Sar = CNCC(=O)O
MEASURED QUANTITY: HIT−CALL
I'd appreciate a reply containing only the number, no unit.

>>> experimental_result("NC(=O)N1c2ccccc2C=Cc2ccccc21 [Carbamazepine]")
1
>>> experimental_result("Oc1cc(O)c2c(c1)O[C@H](c1ccc(O)c(O)c1)[C@@H](O)C2 [Cianidanol]")
1
>>> experimental_result("Nc1nc2ncc(CNc3ccc(C(=O)N[C@@H](CCC(=O)O)C(=O)O)cc3)nc2c(=O)[nH]1 [Folic Acid]")
0
>>> experimental_result("CNC(=O)c1cc(Oc2ccc(NC(=O)Nc3ccc(Cl)c(C(F)(F)F)c3)cc2)ccn1 [Sorafenib]")
1
>>> experimental_result("CCCCOC(=O)c1ccc(O)cc1 [Butylparaben, 4−Hydroxybenzoic acid butyl ester]")
1
>>> experimental_result("Cc1nc(Nc2ncc(C(=O)Nc3c(C)cccc3Cl)s2)cc(N2CCN(CCO)CC2)n1 [Dasatinib]")
1
>>> experimental_result("COc1cc2c(Nc3ccc(Br)cc3F)ncnc2cc1OCC1CCN(C)CC1 [Vandetanib]")
1
>>> experimental_result("CN(Cc1cnc2nc(N)nc(N)c2n1)c1ccc(C(=O)N[C@@H](CCC(=O)O)C(=O)O)cc1 [Methotrexate]")
0

Please give measured HIT−CALL of the following entry: `CCCc1cc(=O)[nH]c(=S)[nH]1`
0

Assign HIT−CALL to the following record: O=c1[nH]c(=O)n([C@H]2C[C@H](O)[C@@H](CO)O2)cc1Br [5-Bromo-2’-deoxyuridine]
1

Look up and state reported HIT−CALL for Cc1c2oc3c(C)ccc(C(=O)N[C@@H]4C(=O)N[C@H](C(C)C)C(=O)N5CCC[C@H]5C(=O)N(C)CC(=O)N(C)[C@@H](C(C)C)C(=O)O[C@@H]4C)c3nc-2c(C(=O)N[C@@H]2C(=O)N[C@H](C(C)C)C(=O)N3CCC[C@H]3C(=O)N(C)CC(=O)N(C)[C@@H](C(C)C)C(=O)O[C@@H]2C)c(N)c1=O [Actinomycin D] (I: T[dV]P[Sar][NMeV] / II: T[dV]P[Sar][NMeV]; ester I:1-I:C, II:1-II:C; linker I:N-II:N via Actinocin(9to1))
1

# return recorded HIT−CALL for entry [H]/N=C(/NCCCCC)N/N=C/c1c[nH]c2ccc(OC)cc12 [Tegaserod Maleate]
1

# return recorded HIT−CALL for input Nc1cccc2c1CN(C1CCC(=O)NC1=O)C2=O (centres unmarked) [Lenalidomide]
1

State, in one line, measured HIT−CALL of Cc1ccc(NC(=O)c2ccc(CN3CCN(C)CC3)cc2)cc1Nc1nccc(-c2cccnc2)n1 [Imatinib]
1

Determine from records and report HIT−CALL for C=CC(N)=O [Acrylamide]
0

Give the measured HIT−CALL for `CC1=C(/C=C/C(C)=C/C=C/C(C)=C/C(=O)O)C(C)(C)CCC1`
1
